The measured values listed here are drawn from patent US12077503B2.

System: ragweed (common ragweed, Ambrosia elatior)
assay_comment: Test A postemergence
Format: in vivo
run_conditions: Ambrosia artemisiifolia, post-emergence, 240 h, 125 g ai/ha, postemergence, visual injury rating after approximately 10 d; read-out: Ragweed plant response rating (0 to 100 scale, 0 no effect, 100 complete control)
reported_endpoint: pest or weed control at 125 g/ha (%)
State the answer as a number, implicitly in %.

Ask | Provide pest or weed control at 125 g/ha, tested on ragweed (common ragweed, Ambrosia elatior), for CSc1ccccc1NC(=O)[C@H]1C(=O)NC[C@@H]1c1cccc2c1OC(F)(F)O2 .
Reply | 0

Ask | Provide pest or weed control at 125 g/ha, tested on ragweed (common ragweed, Ambrosia elatior), for COc1ccc([C@H]2CN(C)C(=O)[C@@H]2C(=O)Nc2ccccc2F)cc1OC .
Reply | 0

Ask | Provide pest or weed control at 125 g/ha, tested on ragweed (common ragweed, Ambrosia elatior), for CN1C[C@H](c2cc(F)c(C(F)(F)F)c(F)c2)[C@@H](C(=O)Nc2ccccc2S(C)(=O)=O)C1=O .
Reply | 10

Ask | Provide pest or weed control at 125 g/ha, tested on ragweed (common ragweed, Ambrosia elatior), for COc1ccc([C@H]2CN(C)C(=O)[C@@H]2C(=O)Nc2ccccc2SC)cc1OC .
Reply | 0

Ask | Provide pest or weed control at 125 g/ha, tested on ragweed (common ragweed, Ambrosia elatior), for CN1C[C@H](c2ccc(C(F)F)cc2)[C@@H](C(=O)Nc2ccccc2F)C1=O .
Reply | 30

Ask | Provide pest or weed control at 125 g/ha, tested on ragweed (common ragweed, Ambrosia elatior), for COc1ccc([C@H]2CN(C)C(=O)[C@@H]2C(=O)Nc2cccc(F)c2F)cc1OC .
Reply | 0

Ask | Provide pest or weed control at 125 g/ha, tested on ragweed (common ragweed, Ambrosia elatior), for CCOc1ccc([C@H]2CNC(=O)[C@@H]2C(=O)Nc2ccc(F)cc2F)cc1 .
Reply | 0

Ask | Provide pest or weed control at 125 g/ha, tested on ragweed (common ragweed, Ambrosia elatior), for CN1C[C@H](c2cccc(C3CC3)c2)[C@@H](C(=O)Nc2ccccc2S(C)(=O)=O)C1=O .
Reply | 0

Ask | Provide pest or weed control at 125 g/ha, tested on ragweed (common ragweed, Ambrosia elatior), for CN1C[C@H](c2cc(F)cc(F)c2)[C@@H](C(=O)Nc2ccccc2[S@+](C)[O-])C1=O .
Reply | 0

Ask | Provide pest or weed control at 125 g/ha, tested on ragweed (common ragweed, Ambrosia elatior), for COc1ccccc1NC(=O)[C@H]1C(=O)N(C)C[C@@H]1c1ccc(C(F)(F)F)cc1 .
Reply | 0

Ask | Provide pest or weed control at 125 g/ha, tested on ragweed (common ragweed, Ambrosia elatior), for CS(=O)(=O)c1ccccc1NC(=O)[C@H]1C(=O)NC[C@@H]1c1cc(F)c(C(F)(F)F)c(F)c1 .
Reply | 60

====

Assign Plant response rating, Barnyardgrass to each entry below.
Test system: barnyardgrass (Echinochloa crus-galli)
assay_comment: Test A postemergence
Format: in vivo
run_conditions: 125 g ai/ha, postemergence; visual rating after approx. 10 d, 0 to 100 scale (0 no effect, 100 complete control)
Returns: the value as a bare number; no unit string appended.

Ask | Give a short answer stating reported Plant response rating, Barnyardgrass for Cc1ccc(C2CN(C)C(=O)C2C(=O)Nc2cccc(F)c2F)cc1 (stereo not shown) .
Reply | 90

Ask | Give a short answer stating reported Plant response rating, Barnyardgrass for NS(=O)(=O)c1ccccc1NC(=O)C1C(=O)NCC1c1cccc(C(F)(F)F)c1 (stereo not shown) .
Reply | 40

Ask | Give a short answer stating reported Plant response rating, Barnyardgrass for Cc1c(F)cccc1NC(=O)C1C(=O)N(C)CC1c1cccc(C(F)(F)F)c1 (stereo not shown) .
Reply | 90

Ask | Give a short answer stating reported Plant response rating, Barnyardgrass for CC(C)Oc1cccc(C2CNC(=O)C2C(=O)Nc2ccccc2F)c1 (stereo not shown) .
Reply | 80
